measurement.target: VAV1 (Homo sapiens, UniProt P15498+Q96SW2)
Construct: A heterozygous VAV1 C-terminal HiBiT knock-in pool was generated at Monte Rosa Therapeutics from a clonal Jurkat cell; endogenous in cells; host or cells: Jurkat clone stably expressing LgBiT, homozygous GSPT1-G575N; heterozygous VAV1-HiBiT knock-in pool
protocol.text: VAV1 degradation activity, VAV1-HiBiT knock-in Jurkat luminescence assay (Example A, Table 1)
Type: cell-based
condition.context: VAV1-HiBiT knock-in Jurkat cells, luminescence read at 6 and 24 hours; read-out: VAV1 DC50 (nM), class
Procedure: Cells were plated at 10,000 cells per well using Multiflo (BioTek) or Multi Drop Combi (Thermo Fisher) in 384-well white solid bottom plates (Corning, 3570BC) in 25 ul volume in RPMI 1640 media (Thermo Fischer, 22400105) containing 10% FBS (Corning, 35-075-CV), 1% Penicillin/Streptomycin (ThermoFisher Scientific, 15140-122), and 1% Endurazine (Nano-Glo Endurazine Live Cell Substrate (Promega, N2571)). Cells were incubated for ˜16 hours at 37° C., 5% CO2. […]
measure: DC50

Record request: DC50 value, item `O=C1CC[C@@H](c2cccc(-c3ccc(Cn4ccccc4=O)cc3)c2Cl)C(=O)N1`
≤ 100 nM

Requested read-out: DC50. Entry: O=C1CCC(c2cccc(-c3ccc(N4C(=O)OCCC45CCC5)nc3)c2Cl)C(=O)N1 (stereo not drawn)
≤ 100 nM

Look at this compound and give its reported DC50. O=C1CCC(c2cccc(-c3ccc(N4CCC5(COC5)C4=O)cc3)c2Cl)C(=O)N1 (stereo not drawn)
> 1000 nM

Requested field: DC50. Item: O=C1CCC(c2cccc(-c3ccc(CN4CC5CC5C4=O)cc3)c2Cl)C(=O)N1 (stereo not drawn)
≤ 100 nM

---

measurement.target: VAV1 (Homo sapiens, UniProt P15498+Q96SW2)
Construct: A heterozygous VAV1 C-terminal HiBiT knock-in pool was generated at Monte Rosa Therapeutics from a clonal Jurkat cell; endogenous in cells; host or cells: Jurkat clone stably expressing LgBiT, homozygous GSPT1-G575N; heterozygous VAV1-HiBiT knock-in pool
protocol.text: VAV1 degradation activity, VAV1-HiBiT knock-in Jurkat luminescence assay (Example A, Table 1)
Assay type: cell-based
condition.context: VAV1-HiBiT knock-in Jurkat cells, luminescence read at 6 and 24 hours; read-out: VAV1 DC50
# log10 of DC50 annotations
# values: log10(DC50), units nM

Please look up its log10 of DC50: Cn1cnc(Cn2c(=O)oc3cc(-c4cccc(C5CCC(=O)NC5=O)c4Cl)ccc32)c1 (centres unmarked)
1.11

What value of measured log10 of DC50 is listed for N#CC1(CN2C(=O)Cc3cc(-c4cccc(C5CCC(=O)NC5=O)c4Cl)ccc32)CC1 (centres unmarked) ?
2.79

What value of log10 of DC50 has been recorded for this entry: Cc1cccc(=O)n1Cc1ccc(-c2cccc(C3CCC(=O)NC3=O)c2Cl)cc1 (centres unmarked)
1.06

Continuing:
Endpoint output: log10 of DC50 of CC1(C)COCC(=O)N1c1ccc(-c2cccc(C3CCC(=O)NC3=O)c2Cl)cc1 (centres unmarked) . Value?
0.72

Dear colleague, I am looking for the recorded log10 of DC50 of the following compound: CC1CCC(=O)N1Cc1ccc(-c2cccc(C3CCC(=O)NC3=O)c2Cl)cc1 (centres unmarked)
1.13
